B1: IKZF1 (parent)
chain: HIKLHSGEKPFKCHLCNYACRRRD

Variants of: B1
experiment-description: protein stability index of a GFP-peptide fusion (GPS, HEK-293T) (PSI 1-6); higher = more stable;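 also: lentivirally expressed fusions sorted by FACS into six bins by GFP to DsRed ratio, PSI derived from sequencing read proportions per bin multiplied by bin number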
test-settings: c terminus: a fixed tail appended
# reported protein stability index; entries follow

| chain-sequence | protein stability index |
| --- | --- |
| HIKLHSGEKPFKCLLCNYACRRRD [H14L] | 1.88 |
| HIKLHSGEHPFKCHLCNYACRRRD [K9H] | 3.3 |
| HIKLHSGEKPFKCHLCNCACRRRD [Y18C] | 2.04 |
| HIKLHSGEKPFKCHLCFYACRRRD [N17F] | 2.79 |
| HIKLHSGEKPFKCHLCNYACRYRD [R22Y] | 2.05 |
| HSKLHSGEKPFKCHLCNYACRRRD [I2S] | 1.76 |
| PIKLHSGEKPFKCHLCNYACRRRD [H1P] | 2.3 |
| HIKLHDGEKPFKCHLCNYACRRRD [S6D] | 1.97 |
| EIKLHSGEKPFKCHLCNYACRRRD [H1E] | 2.21 |
| HIKLHSGEKPFKCHLCNYPCRRRD [A19P] | 1.71 |
| HIKLHSGEKPFKCHLCNYACRRGD [R23G] | 2.04 |
| HLKLHSGEKPFKCHLCNYACRRRD [I2L] | 2 |
| HIKLHSGEKEFKCHLCNYACRRRD [P10E] | 1.07 |
| HIKLHSGEKPHKCHLCNYACRRRD [F11H] | 2.2 |
| HIKLHSGEKPFKCHWCNYACRRRD [L15W] | 2.44 |
| IIKLHSGEKPFKCHLCNYACRRRD [H1I] | 1.5 |
| HIKLHRGEKPFKCHLCNYACRRRD [S6R] | 2.24 |
| HIKLHSGEMPFKCHLCNYACRRRD [K9M] | 2.1 |
| HIKLHSGEKPFLCHLCNYACRRRD [K12L] | 1.82 |
| HIKLHSGEKPFKCHLQNYACRRRD [C16Q] | 2.12 |
| HIKLHWGEKPFKCHLCNYACRRRD [S6W] | 2.93 |
| HIKLHSGEKPFKCHLCNYACRRHD [R23H] | 2.12 |
| HIKLHSGNKPFKCHLCNYACRRRD [E8N] | 1.25 |
| FIKLHSGEKPFKCHLCNYACRRRD [H1F] | 2.4 |
| HIKLHSGEKPFECHLCNYACRRRD [K12E] | 2.29 |
| HIKSHSGEKPFKCHLCNYACRRRD [L4S] | 2.84 |
| HIKLHLGEKPFKCHLCNYACRRRD [S6L] | 1.93 |
| HIKLHSGEKPFKCHLCLYACRRRD [N17L] | 2.07 |
| HIKLHSGELPFKCHLCNYACRRRD [K9L] | 1.86 |
| HIKLHSGEKPFKNHLCNYACRRRD [C13N] | 3.53 |
| HIKMHSGEKPFKCHLCNYACRRRD [L4M] | 1.58 |
| HIKLHSGEKPFKCHLCNYACRRAD [R23A] | 2.13 |
| HIKLHSGEKPFKCHLCNYVCRRRD [A19V] | 1.4 |
| HIKLHSGEKPFKCHLTNYACRRRD [C16T] | 2.8 |
| HIKLHSGEKPFKCHMCNYACRRRD [L15M] | 1.36 |
| HIKLHSGEKPFKCHLFNYACRRRD [C16F] | 2.05 |
| HIKLHSGEKPFKCHLCNYACRGRD [R22G] | 1.5 |
| HIKLHSGEKPFKCHLCNYACTRRD [R21T] | 2.38 |
| HIKLHSGHKPFKCHLCNYACRRRD [E8H] | 1.93 |
| HIKLHSGEKPFKHHLCNYACRRRD [C13H] | 2.79 |
| HIKLNSGEKPFKCHLCNYACRRRD [H5N] | 2.13 |
| HIKLHSGEKPFKQHLCNYACRRRD [C13Q] | 2.75 |
| HIKLHSGEKPFNCHLCNYACRRRD [K12N] | 1.67 |
| HIKLHMGEKPFKCHLCNYACRRRD [S6M] | 2.13 |
| HIYLHSGEKPFKCHLCNYACRRRD [K3Y] | 1.69 |
| HIKLHAGEKPFKCHLCNYACRRRD [S6A] | 1.65 |
